Hello, the source for this data is patent US20060258561A1, in case you need it.

endpoint label: melting point

Below: 10 molecules and their reported melting point.
COc1cc(O)cc(OC)c1/C=C1\SC(=O)NC1=O | 331 to 333 °C
O=C1NC(=O)C(=Cc2c[nH]c3ccc([N+](=O)[O-])cc23)S1 | 330 to 333 °C
O=C1NC(=O)/C(=C/c2ccc3cc(O)ccc3c2)S1 | 310 to 314 °C
COc1cc(OCc2c(F)cccc2[N+](=O)[O-])cc(OC)c1/C=C1\SC(=O)NC1=O | 255 to 256 °C
O=C1NC(=O)/C(=C/c2cc3ccccc3o2)S1 | 265 to 266 °C
O=C1NC(=O)/C(=C/c2cc3ccccc3[nH]c2=O)S1 | 338 to 347 °C
CC(/C=C1\SC(=O)NC1=O)=C\c1ccccc1 | 203 to 210 °C
CN(C)c1ccc(/C=C/C=C2\SC(=O)NC2=O)cc1 | 259 to 263 °C
c1cc(COc2ccc3ccccc3c2)cc(-c2nnn[nH]2)c1 | 200 to 202 °C
Cc1cccc(C)c1/C=C1\SC(=O)NC1=O | 104 to 105 °C

In: Requested field: melting point. Item: `COc1cc(/C=C2\SC(=O)NC2=O)cc(I)c1O`
Out: 256 °C

In: # iterate: `COc1cccc(OC)c1/C=C1\SC(=O)NC1=O`
Out: 241 to 242 °C
